This section presents compounds with their documented inhibition values.
assayedSystem: SARS-CoV-2 Main Protease (SARS-CoV-2) (UniProt P0DTD1)
conditionsUsed: 20.0 µM
Show the value, then the unit it is measured in.

Solved cases (4 shown):
| compound | assayedSystem | endpointResult |
| --- | --- | --- |
| N#Cc1ccc(NC(=O)Nc2cccnc2)cc1 | SARS-CoV-2 Main Protease (SARS-CoV-2) (UniProt P0DTD1) | 0% |
| C=CC(=O)N(c1ccc(SC)cc1)C(C(=O)NC(C)(C)C)c1cccnc1 (stereo unspecified) | SARS-CoV-2 Main Protease (SARS-CoV-2) (UniProt P0DTD1) | 0% |
| O=C(NCc1ccno1)c1ccccc1OC1CCCCC1 | SARS-CoV-2 Main Protease (SARS-CoV-2) (UniProt P0DTD1) | 0% |
| C#Cc1cccc(N(C(=O)C=C)C(C(=O)NC(C)(C)C)c2cccnc2)c1 (stereo unspecified) | SARS-CoV-2 Main Protease (SARS-CoV-2) (UniProt P0DTD1) | 0% |

The compound identified as N#Cc1ccc(CNC(=O)Cc2c[nH]c3ncccc23)nc1 registered its inhibition at 0%

The compound identified as Cc1ccccc1NC1CCN(c2ccc(S(N)(=O)=O)cc2)CC1 registered its inhibition at 25.2%

###

conditionsUsed: 20.0 µM
This section presents compounds with their documented relative solubility at 20 uM values.
Respond using a number only.

Solved cases (8 shown):
| compound | relative solubility at 20 uM |
| --- | --- |
| O=C(NCc1ccno1)c1ccccc1OC1CCCCC1 | 1 |
| C=CC(=O)N(c1cc(C(C)(C)C)n[nH]1)C(C(=O)Nc1ccc(Cl)cc1)c1cccnc1 (stereo unspecified) | 0.78 |
| O=C(CCl)N1CCN(Cc2cccs2)CC1 | 1 |
| O=C(NCCNc1ccnc2cc(Cl)ccc12)Nc1ccc(F)cc1 | 0.99 |
| Cc1ccncc1NC(=O)C(C)(C)c1cccc(Cl)c1 | 1 |
| COc1ccncc1NC(=O)C(C)(C)c1cc(F)cc(C#N)c1 | 0.99 |
| Cc1nnc(NC(=O)Cc2cccc(Cl)c2)n1C | 1 |
| COc1ccc2[nH]cc(CCNC(C)=O)c2c1 | 1 |

The compound identified as C=CC(=O)N(c1ccc(SC)cc1)C(C(=O)Nc1ccc(OC)cc1C)c1cccnc1 (stereo unspecified) registered its relative solubility at 20 uM at 0.95

The compound identified as C=CC(=O)N(c1ccc(C2(C)CC2)cc1)C(C(=O)NC(C)(C)C)c1cccnc1 (stereo unspecified) registered its relative solubility at 20 uM at 1

The compound identified as CCc1nnnn1-c1ccccc1NC(=O)C1(c2cncc(Br)c2)CC1 registered its relative solubility at 20 uM at 1

###

conditionsUsed: 100.0 µM
valueType: relative solubility at 100 uM
Respond using a number only.

Solved cases (5 shown):
| compound | endpointResult |
| --- | --- |
| C=CC(=O)N(c1ccc(N(C)C)c(C)c1)C(C(=O)NC(C)(C)C)c1cccnc1 (stereo unspecified) | 0.95 |
| Cc1cc(Br)cc2c1N(CCBr)C(=O)C2=O | 1 |
| O=C(c1cc2sccc2s1)N1CCOC(CN2CCOCC2)C1 (stereo unspecified) | 0.99 |
| C=CC(=O)N(c1ccc(C(C)(C)C)cc1)C(C(=O)NCc1ccc(F)cc1)c1cccnc1 (stereo unspecified) | 0.66 |
| O=C(C1CCN(S(=O)(=O)c2ccccc2)CC1)N1CCOCC1 | 0.99 |

The compound identified as C=CC(=O)N(c1ccc(SC)cc1)C(C(=O)Nc1ccc(Cl)cc1)c1cccnc1 (stereo unspecified) registered its relative solubility at 100 uM at 0.64

###

This section presents compounds with their documented inhibition values.
assayedSystem: UniProt:P0DTD1
conditionsUsed: 20.0 µM

Solved cases (2 shown):
| compound | assayedSystem | endpointResult |
| --- | --- | --- |
| O=C(NCc1cnccn1)c1sc2cccc(F)c2c1COc1ccccc1 | UniProt:P0DTD1 | -1.73% |
| O=C(NCc1cccnn1)Nc1cccc(-c2ncc3n2CCCC3)c1 | UniProt:P0DTD1 | -2.92% |

The compound identified as O=C(Nc1cccnc1)Nc1cc(O)cc(Cl)c1 registered its inhibition at 4.43%

###

This section presents compounds with their documented relative solubility at 100 uM values.
conditionsUsed: 100.0 µM
Respond using a number only.

| compound | relative solubility at 100 uM |
| --- | --- |
| Cc1ccncc1NC(=O)Cc1cccc(F)c1 | 1 |
| O=C(NC1CCCCC1NC(=O)c1ccncc1)c1ccccc1 (stereo unspecified) | 1 |
| C=CC(=O)N(c1ccc(S(F)(F)(F)(F)F)cc1)C(C(=O)Nc1c(C)cccc1CC)c1cccnc1 (stereo unspecified) | 0.73 |
| O=C(Nc1ccc([N+](=O)[O-])cc1Cl)c1cccc(Cl)c1 | 0.57 |
| C=CC(=O)N(c1ccc(S(F)(F)(F)(F)F)cc1)C(C(=O)Nc1ccc(OC)cc1)c1cccnc1 (stereo unspecified) | 0.71 |
| C=CC(=O)N(c1ccc(C2(C)CC2)cc1)C(C(=O)NC(C)(C)C)c1cccnc1 (stereo unspecified) | 1 |
| O=C(Nc1cccc(-c2cc[nH]n2)c1)C(O)c1cccnc1 (stereo unspecified) | 1 |
| Cc1cccc(CC(=O)Nc2cccnc2C#N)c1 | 1 |
| CS(=O)(=O)Nc1cccc(C(=O)Oc2cccc(N3CCCC3=O)c2)c1 | 0.86 |
| Cc1ccncc1-c1nc(-c2cccc(Cl)c2)no1 | 0.99 |

The compound identified as O=C(COc1ccccc1)NCCc1ccccc1 registered its relative solubility at 100 uM at 1

The compound identified as CCNc1ncc(C#N)cc1CN1CCN(C(=O)CCl)CC1 registered its relative solubility at 100 uM at 0.95

The compound identified as O=C(Cc1cccnc1)Nc1cccc(OC2CC(=O)N2)c1 (stereo unspecified) registered its relative solubility at 100 uM at 0.99

###

This section presents molecules with their documented relative solubility at 20 uM values.
conditionsUsed: 20.0 µM
Respond using a number only.

| molecule | relative solubility at 20 uM |
| --- | --- |
| CCn1c(=O)n(CC(=O)Nc2c(C)ccnc2C)c2ccccc21 | 1 |

The molecule identified as C=CC(=O)N(c1ccc(C(C)(C)C)cc1)C(C(=O)NCCOC)c1cccnc1 (stereo unspecified) registered its relative solubility at 20 uM at 1

The molecule identified as O=C(Cc1c[nH]c2ncccc12)N1CCC(N2CCCS2(=O)=O)CC1 registered its relative solubility at 20 uM at 1

The molecule identified as O=C(CCl)N1CCCc2cc(NCc3ccc(F)cc3Cl)ccc21 registered its relative solubility at 20 uM at 0.81

The molecule identified as N#Cc1cccc(CNc2ccc(O)cc2)c1 registered its relative solubility at 20 uM at 1

The molecule identified as Cc1ccc(-c2cc(C(F)(F)F)nn2-c2ccc(S(N)(=O)=O)cc2)cc1 registered its relative solubility at 20 uM at 0.91

The molecule identified as CO[C@H](C)C(=O)N(C)c1cnccc1C (stereo in doubt) registered its relative solubility at 20 uM at 1.01

The molecule identified as O=C(CCl)N1CC2CC1CN2Cc1cccc(Cl)c1 (stereo unspecified) registered its relative solubility at 20 uM at 0.99

The molecule identified as CC(=O)NCc1cccc(NC(=O)Cc2cncnc2)c1 registered its relative solubility at 20 uM at 1.01

The molecule identified as Cc1ccc(NC(=O)C(C#N)C(=O)CC(C)C)cc1 (stereo unspecified) registered its relative solubility at 20 uM at 0.99

The molecule identified as CN(C(=O)C1CCOc2ccc(Cl)cc21)c1ccc(Cl)cn1 (stereo unspecified) registered its relative solubility at 20 uM at 0.99

###

This section presents compounds with their documented relative solubility at 20 uM values.
conditionsUsed: 20.0 µM
Respond using a number only.

| compound | relative solubility at 20 uM |
| --- | --- |
| COCC1CCN(c2ccc(S(N)(=O)=O)cc2)CC1 | 0.99 |
| O=C(c1cc(=O)[nH]c2ccccc12)N1CCN(Cc2ccccc2)CC1 | 0.99 |
| C=CC(=O)N1CCCC(N(CC2CCCCC2)C2CCC(O)CC2)C1 (stereo not drawn) | 1 |

The compound identified as COc1ccc(C2CC(c3ccccc3)=NN2C(=O)CCl)cc1OC (stereo not drawn) registered its relative solubility at 20 uM at 0.99

The compound identified as O=C(Nc1nncn1C1CC1)[C@H]1CCOc2ccc(Cl)cc21 (stereo in doubt) registered its relative solubility at 20 uM at 1.01

The compound identified as C=CC(=O)Nc1cccc(OC2CC(=O)N2)c1 (stereo not drawn) registered its relative solubility at 20 uM at 1

The compound identified as O=C(Nc1cccnc1)c1cc(Cl)ccc1O registered its relative solubility at 20 uM at 1

###

assayedSystem: SARS-CoV-2 Main Protease (SARS-CoV-2)
conditionsUsed: 20.0 µM
valueType: inhibition (%)
Dear colleague, please return just the value in %, with no unit written.

Solved cases (5 shown):
| compound | endpointResult |
| --- | --- |
| C=CC(=O)N(c1ccc(C(C)(C)C)cc1)C(C(=O)NCCc1cccc(F)c1)c1cncc(O)c1 (stereo unspecified) | 16.1 |
| Cc1ccc(S(=O)(=O)NC2CCN(C(=O)CCl)CC2)cc1 | 25.1 |
| CN(Cc1ccc(OCc2cccs2)cc1)C(=O)Cn1nnc2ccccc21 | 2.49 |
| Cc1ccc(NC(=O)Cc2cc3cccnc3[nH]2)s1 | 23.7 |
| O=C(CC(=O)N1CCOCC1)NCc1ccccc1 | -1.44 |

The compound identified as Cc1ccnc(C)c1NC(=O)C1CC2CC2C1 (stereo unspecified) registered its inhibition at 10.2

The compound identified as CCNc1ncc(C#N)cc1CN1CCN(C(=O)CCl)CC1 registered its inhibition at 99.7

The compound identified as CC(=O)N[C@@H](C)C(=O)Nc1cnccc1C (stereo in doubt) registered its inhibition at -12.3

The compound identified as C#Cc1ccc(CNC(=O)N2CCOCC2)cc1 registered its inhibition at 1.4

The compound identified as C=CC(=O)N1CCN(Cc2ccc(F)cc2)CC1 registered its inhibition at 7.92

The compound identified as CN(C)c1ccc(N(Cc2ccsc2)C(=O)Cn2nnc3ccccc32)cc1 registered its inhibition at 84.4
